# Protocol notes: Cell Viability - HepG2 (AID 433);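 further: cells exposed to compound for 40 hours; potency for ATP loss meaning cytotoxicity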
# Condition info: qHTS
Records with an inconclusive call do not appear. Calls of active or inactive are those of the source. The call rests on the fitted dose curve.
Give your call using only these classes: class 1 (active), class 0 (inactive)

Problem: Hi, sorry to bother you, what did the test record for Oc1cccc(Cl)c1Cl ?
Result: class 0

Problem: CC(C)(C)c1ccccc1O , same question.
Result: class 0

Problem: And the next one, Nc1ccc([N+](=O)[O-])cc1[N+](=O)[O-] ?
Result: class 0

Problem: Entry C=CC(=O)OCC(C)C please
Result: class 0

Problem: Lookup O=c1ccc(=O)[nH][nH]1
Result: class 0

Problem: Again, but for CCOC(=O)CBr
Result: class 0

Problem: What do we get for CC(C)(C)OOC(=O)c1ccccc1 ?
Result: class 0

Problem: Another: C=CCCC#N
Result: class 0

Problem: How about CCCCOC(=O)c1ccccc1N ?
Result: class 0

Problem: Also CCOP(=S)(OCC)SCCSCC , if possible.
Result: class 0

Problem: Same lookup for CN(C)C(=O)Nc1ccc(Cl)cc1 , please.
Result: class 0

Problem: Ok, now Nc1ccc(-c2ccc(N)c(Cl)c2)cc1Cl
Result: class 0

Problem: Moving on to N#C/C=C/C#N
Result: class 0

Problem: Next up: C=COC(C)=O
Result: class 0

Problem: Lookup Clc1cccc(Cl)c1
Result: class 0

Problem: Moving on to the next compound: CN(C)c1ccc(N=Nc2ccccc2)cc1
Result: class 0

Problem: And Nc1ccc([N+](=O)[O-])cc1N ?
Result: class 0

Problem: Can you check CCSC(=O)N1CCCCCC1 next?
Result: class 0

Problem: How about CCN(CC)CCO ?
Result: class 0

Problem: Now the same for C=CC(=O)OC
Result: class 0

Problem: Follow-up entry: CCCCOC(C)=O
Result: class 0

Problem: Also check COP(=S)(OC)SCn1nnc2ccccc2c1=O
Result: class 0

Problem: Same question for OCCCCO please.
Result: class 0

Problem: Try this compound next: CCC[N+](=O)[O-]
Result: class 0

Problem: Again, but for CCOS(C)(=O)=O
Result: class 0

Problem: What do you have for Nc1ccc(Cc2ccc(N)c(Cl)c2)cc1Cl ?
Result: class 0

Problem: Next compound: OC[P+](CO)(CO)CO
Result: class 0

Problem: What do you have for CCCCNC(=O)n1c(NC(=O)OC)nc2ccccc21 ?
Result: class 0

Problem: // next record OCC(Cl)CCl (stereo not drawn)
Result: class 0

Problem: What would you report for Cc1ccc(OP(=O)(Oc2ccc(C)cc2)Oc2ccc(C)cc2)cc1 ?
Result: class 0

Problem: Note, next up: Nc1cc(Cl)cc(C(=O)O)c1Cl
Result: class 0

Problem: Next entry: c1ccc(NNc2ccccc2)cc1
Result: class 0

Problem: N#CCc1ccccc1 , same question.
Result: class 0

Problem: Now consider N#C/C(N)=C(/N)C#N .
Result: class 0

Problem: Same read-out for COc1cc(-c2ccc(N)c(OC)c2)ccc1N ?
Result: class 0

Problem: Please give the result for Cc1ccc(N)c(C)c1 too.
Result: class 0

Problem: O=S(=O)(Cl)c1ccccc1 , same question.
Result: class 0

Problem: Also O=C(O)c1cccc(Cl)c1 , if possible.
Result: class 0

Problem: Now the compound CCCCCC[N+](=O)[O-]
Result: class 0

Problem: Also CN(C)c1ccc(N)cc1 , if possible.
Result: class 0

Problem: Thanks! And Cc1cccc(C)c1N ?
Result: class 0

Problem: Next up: C=CCO
Result: class 0

Problem: Next: O=P(OCCCl)(OCCCl)OCCCl
Result: class 0

Problem: Try the compound CN(C)C(=O)Cl
Result: class 0

Problem: Continue with Brc1ccc(Oc2ccc(Br)cc2Br)c(Br)c1
Result: class 0

Problem: Now the same for Cc1cc(C)cc(OP(=O)(Oc2cc(C)cc(C)c2)Oc2cc(C)cc(C)c2)c1
Result: class 0

Problem: // repeat for BrCC(Br)(Br)Br and report
Result: class 0

Problem: Next: Oc1cc(Cl)c(Cl)c(Cl)c1
Result: class 1
